# Test Description: Binding affinity to human recombinant Cathepsin L-like protease using Z-FR-AMC as substrate assessed as inhibition constant preincubated for 30 mins followed by substrate addition and measured after 1 hr by Morrison equation based analysis
Metric: Ki

- Entry Smiles: "CC(C)C[C@H](NC(=O)/C=C/c1ccccc1)C(=O)N[C@H](C=O)Cc1ccccc1"
  Experimental Value: "1.31 nM"

* * *

# Test Description: Inhibition of recombinant Cathepsin L-like protease in african green monkey Vero E6 cells incubated for 2 hrs by pull down assay
# Assay type: cell-based, Chlorocebus aethiops
Metric: EC50 (µM)

- Entry Smiles: "C#CCCCCOc1ccc(/C=C/C(=O)N[C@@H](CC(C)C)C(=O)N[C@H](C=O)Cc2ccccc2)cc1"
  Metric: "EC50"
  Units Text: "µM"
  Experimental Value: 6.21

* * *

# Assayed Target: Cathepsin B (Homo sapiens)

- Entry Smiles: "CC(C)C[C@H](NC(=O)/C=C/c1ccccc1)C(=O)N[C@H](C=O)Cc1ccccc1"
  Assayed Target: "Cathepsin B (Homo sapiens)"
  Units Text: "nM"
  Ki: 40.1

* * *

# Test Description: Inhibition of human recombinant Cathepsin L-like protease using Z-FR-AMC as substrate at 10 uM preincubated for 30 mins followed by substrate addition and measured after 1.5 hrs by […]
Item-by-item account of IC50
Metric: IC50 (nM)

- Entry Smiles: "O=C(N[C@@H](Cc1ccccc1)C(=O)N[C@@H](Cc1ccccc1)C(=O)CCl)c1ccc2[nH]ccc2c1"
  Units Text: "nM"
  Experimental Value: 0.8
- Entry Smiles: "O=C(N[C@@H](Cc1cccc(F)c1)C(=O)N[C@@H](Cc1ccccc1)C(=O)CCl)c1cccc2ccccc12"
  Units Text: "nM"
  Experimental Value: 1.34
- Entry Smiles: "O=C(N[C@@H](Cc1ccccc1)C(=O)N[C@@H](Cc1ccccc1)C(=O)CCl)c1cccc2ccccc12"
  Units Text: "nM"
  Experimental Value: 0.41
- Entry Smiles: "O=C(N[C@@H](Cc1cccc(F)c1)C(=O)N[C@@H](Cc1ccccc1)C(=O)CCl)c1ccc2[nH]ccc2c1"
  Units Text: "nM"
  Experimental Value: 0.72
- Entry Smiles: "O=C(N[C@@H](Cc1ccc(F)cc1)C(=O)N[C@@H](Cc1ccccc1)C(=O)CCl)c1ccc2[nH]ccc2c1"
  Units Text: "nM"
  Experimental Value: 0.56
- Entry Smiles: "O=C(N[C@@H](Cc1ccc(F)cc1)C(=O)N[C@@H](Cc1ccccc1)C(=O)CCl)c1cccc2ccccc12"
  Units Text: "nM"
  Experimental Value: 0.27

* * *

# Test Description: Inhibition of human recombinant Cathepsin L-like protease using Z-FR-AMC as substrate preincubated for 30 mins followed by substrate addition and measured after 1.5 hrs by fluorescence based analysis
Where a SMILES comes first, the peptide text is derived from it. The star is where a group is joined. Boc = CC(C)(C)OC(=O)*
// map IC50 onto a label; ranges bucket 1 = under 20 nM, bucket 2 = from 20 nM up to 40 nM, bucket 3 = 40 nM and over

- Compound: "O=C[C@H](Cc1ccccc1)NC(=O)[C@H](Cc1ccccc1F)NC(=O)/C=C/c1ccccc1"
  Label Class: "bucket 1"
- Compound: "C[C@H](NC(=O)/C=C/c1ccccc1)C(=O)N[C@H](C=O)Cc1ccccc1"
  Label Class: "bucket 3"
- Compound: "COc1ccc(C(=O)N[C@@H](CC(C)C)C(=O)N[C@H](C=O)Cc2ccccc2)cc1"
  Label Class: "bucket 1"
- Compound: "CC(C)C[C@H](NC(=O)/C=C/c1ccccc1)C(=O)N[C@H](C=O)C(C)C"
  Label Class: "bucket 2"
- Compound: "CCC[C@H](NC(=O)/C=C/c1ccccc1)C(=O)N[C@H](C=O)Cc1ccccc1"
  Label Class: "bucket 3"
- Compound: "CC(C)C[C@H](NC(=O)c1ccc(-c2ccccc2)cc1)C(=O)N[C@H](C=O)Cc1ccccc1"
  Label Class: "bucket 2"
- Compound: "CC(C)C[C@H](NC(=O)OC(C)(C)C)C(=O)N[C@H](C=O)Cc1ccccc1 (Boc-Leu-Phe-aldehyde)"
  Label Class: "bucket 3"
- Compound: "CC(C)C[C@H](NC(=O)c1ccccn1)C(=O)N[C@H](C=O)Cc1ccccc1"
  Label Class: "bucket 2"
- Compound: "CC(C)[C@H](NC(=O)/C=C/c1ccccc1)C(=O)N[C@H](C=O)Cc1ccccc1"
  Label Class: "bucket 2"
- Compound: "CC(C)C[C@H](NC(=O)/C=C/c1ccccc1)C(=O)N[C@@H](Cc1ccccc1)C(N)=O"
  Label Class: "bucket 3"
- Compound: "CC(C)C[C@H](NC(=O)c1ccccc1F)C(=O)N[C@H](C=O)Cc1ccccc1"
  Label Class: "bucket 1"
- Compound: "CC(C)C[C@H](NC(=O)c1ccco1)C(=O)N[C@H](C=O)Cc1ccccc1"
  Label Class: "bucket 1"
- Compound: "CC(C)C[C@H](NC(=O)/C=C/c1cccc(Cl)c1)C(=O)N[C@H](C=O)Cc1ccccc1"
  Label Class: "bucket 2"
- Compound: "CC(C)C[C@H](NC(=O)c1ccc(F)cc1)C(=O)N[C@H](C=O)Cc1ccccc1"
  Label Class: "bucket 1"
- Compound: "CSCC[C@@H](C=O)NC(=O)[C@H](CC(C)C)NC(=O)/C=C/c1ccccc1"
  Label Class: "bucket 2"
- Compound: "CC(C)C[C@H](NC(=O)c1ccc2[nH]ccc2c1)C(=O)N[C@H](C=O)Cc1ccccc1"
  Label Class: "bucket 1"
- Compound: "CC(C)C[C@H](NC(=O)/C=C/c1ccccc1)C(=O)N[C@H](C=O)Cc1ccccc1Br"
  Label Class: "bucket 3"
- Compound: "CC(C)C[C@H](NC(=O)/C=C/c1ccccc1)C(=O)N[C@H](C=O)Cc1ccc(F)cc1"
  Label Class: "bucket 3"
- Compound: "CC(C)C[C@H](NC(=O)/C=C/c1ccc(Br)cc1)C(=O)N[C@H](C=O)Cc1ccccc1"
  Label Class: "bucket 2"
